Each entry below lists one item and its recorded Decrease value.
- System: Mus musculus
- ASSAY METHOD TEXT: Percent decrease in glucose of db/db mouse was measured at 100 mg/kg/day dosage.
- Type: functional

Sample records with Decrease:
In [3]: df
Out[3]:
                                   compound  reported_value
0  O=C1NC(=O)C(CC#Cc2ccc(Br)cc2)(S(=O)(=O)c2ccccc2)S1 (stereo not given)             53%
1  Cc1ccc(S(=O)(=O)C2(CC#Cc3cccc(Cl)c3)SC(=O)NC2=O)cc1 (stereo not given)             30%
2  O=C1NC(=O)C(S(=O)(=O)c2ccc3ccccc3c2)S1 (stereo not given)             21%
3  Cc1ccc(C#CCC2(S(=O)(=O)c3ccccc3)SC(=O)NC2=O)cc1 (stereo not given)            <15%
4  Cc1cccc(S(=O)(=O)C2(CC#Cc3ccc(Cl)cc3)SC(=O)NC2=O)n1 (stereo not given)            <15%
5  O=C1NC(=O)C(CC#Cc2ccc(Cl)cc2)(Sc2ccccc2)S1 (stereo not given)            <15%
6  O=C1NC(=O)C(CC#Cc2ccc(Br)cc2)(S(=O)(=O)c2ccc(Cl)cc2)S1 (stereo not given)             68%
7  COc1ccc(S(=O)(=O)C2(CC#Cc3ccccc3)SC(=O)NC2=O)cc1 (stereo not given)             21%

Qu. Query for Mus musculus: what Decrease does the record show for O=C1NC(=O)C(CC#Cc2ccc(Cl)cc2)(S(=O)(=O)c2ccc(Br)cc2)S1 (stereo not given) ?
Ans. 69%

Qu. Lookup: Decrease / Mus musculus / O=C1NC(=O)C(CC#Cc2cc(C(F)(F)F)cc(C(F)(F)F)c2)(S(=O)(=O)c2ccccc2)S1 (stereo not given)
Ans. 54%

====

- Test system: Mus musculus
- ASSAY METHOD TEXT: Percent decrease in glucose of db/db mouse was measured at 100 mg/kg/day dosage.
- Assay type: functional
OBSERVATION TYPE: Decrease (%)
Number in %, nothing else.

>>> df
                                   compound  observation_type  unit_name  reported_value
0  Cc1cccc(S(=O)(=O)C2(CC#Cc3ccc(Cl)cc3)SC(=O)NC2=O)c1 (stereo not given)          Decrease          %              33
1  Cc1ccc(S(=O)(=O)C2(CC#Cc3ccc(Cl)cc3)SC(=O)NC2=O)cc1 (stereo not given)          Decrease          %              35
2  O=C1NC(=O)C(CC#Cc2ccccc2)(S(=O)(=O)c2ccc(Cl)cc2)S1 (stereo not given)          Decrease          %              36

Qu. I have this compound here, Cc1ccc(S(=O)(=O)C2(CC#Cc3ccc(Br)cc3)SC(=O)NC2=O)cc1 (stereo not given) , and I need its recorded Decrease.
Ans. 51

Qu. Form field: reported Decrease of O=C1NC(=O)C(CC#Cc2ccc(F)cc2)(S(=O)(=O)c2ccc(Cl)cc2)S1 (stereo not given)
Ans. 54

Qu. Sample CC1(COc2ccc(CC3SC(=O)NC3=O)cc2)CCCCC1 (stereo not given) — what was its Decrease?
Ans. 32

Qu. Any idea what Decrease was measured for Cc1cccc(S(=O)(=O)C2(CC#Cc3ccccc3)SC(=O)NC2=O)c1 (stereo not given) ?
Ans. 48

Qu. Dear colleague, I am looking for the recorded Decrease of the following compound: COc1ccc(C#CCC2(S(=O)(=O)c3ccccc3)SC(=O)NC2=O)cc1 (stereo not given)
Ans. 25

Qu. Which Decrease is reported for this compound? Cc1ccc(C#CCC2(S(=O)(=O)c3ccc(C)cc3)SC(=O)NC2=O)cc1 (stereo not given)
Ans. 28

Qu. # lookup: Decrease of O=C1NC(=O)C(CC#Cc2ccc(C(F)(F)F)cc2)(S(=O)(=O)c2ccc(Cl)cc2)S1 (stereo not given)
Ans. 37

Qu. // returns reported Decrease for input Cc1ccc(S(=O)(=O)C2(CC#Cc3ccccc3Cl)SC(=O)NC2=O)cc1 (stereo not given)
Ans. 30

Qu. # Decrease lookup, item O=C1NC(=O)C(CC#Cc2ccc(Cl)cc2)(S(=O)(=O)c2ccccn2)S1 (stereo not given)
Ans. 55

Qu. // returns reported Decrease for input O=C1NC(=O)C(CC#Cc2ccc(F)cc2)(S(=O)(=O)c2ccc(Br)cc2)S1 (stereo not given)
Ans. 64

Qu. Quick one: Decrease for O=C1NC(=O)C(CC#Cc2ccc(F)c(F)c2)(S(=O)(=O)c2ccc(F)cc2)S1 (stereo not given) ?
Ans. 33

Qu. I would be grateful if you could share the reported Decrease for O=C1NC(=O)C(CC#Cc2ccc(Br)cc2)(S(=O)(=O)c2ccc(F)cc2)S1 (stereo not given) .
Ans. 70

Qu. Sample O=C1NC(=O)C(CC#Cc2ccc(Cl)cc2)(S(=O)(=O)c2ccc(F)cc2)S1 (stereo not given) — what was its Decrease?
Ans. 79

Qu. What measured Decrease goes with Cc1ccc(S(=O)(=O)C2(CC#Cc3ccccc3)SC(=O)NC2=O)cc1 (stereo not given) ?
Ans. 43

Qu. Return reported Decrease; argument: O=C1NC(=O)C(CC#Cc2ccccc2)(S(=O)(=O)c2ccc3ccccc3c2)S1 (stereo not given)
Ans. 24

Qu. Quick check: Decrease of O=C1NC(=O)C(CC#Cc2ccc(F)cc2)(S(=O)(=O)c2ccc(F)cc2)S1 (stereo not given) ?
Ans. 57

Qu. Which Decrease reading was recorded for the compound Cc1ccc(S(=O)(=O)C2(CC#Cc3cc(C(F)(F)F)cc(C(F)(F)F)c3)SC(=O)NC2=O)cc1 (stereo not given) ?
Ans. 22
